tested on: protease according to SEQ ID NO: 3; experiment: Relative proteolytic activity with reversible inhibitor in liquid surfactant preparation (Example 1); format: biochemical; settings: Table 2; boric acid in amount inhibiting starting enzyme by 20-40%; 50% conc. surfactant preparation, 0.92 mM AAPF, 25° C., pH 8.6; relative to same protease without inhibitor
property_label: relative activity, Boric acid (%)
Your answer is read as %, so omit the unit and give the number.

molecule	property_label	result_units	endpoint_result
A187D/F189R: protease of SEQ ID NO: 3 with amino acid substitutions A187D and F189R in the count according to SEQ ID NO: 1 (protein, listed as Bacillus lentus) AQSVPWGISRVQAPAAHNRGLTGSGVKVAVLDTGISTHPDLNIRGGASFVPGEPSTQDGNGHGTHVAGTIAALNNSIGVLGVAPSAELYAVKVLGADGEGAISSIAQGLEWAGNNGMHVANLSLGSPSPSATLEQAVNSATSRGVLVVAASGNSGASSISYPARYANAMAVGATDQNNNRDSRSQYGAGLDIVAPGVNVQSTYPGSTYASLNGTSMATPHVAGAAALVKQKNPSWSNVQIRNHLKNTATSLGSTNLYGSGLVNAEAATR	relative activity, Boric acid	%	37

Data request: If you can, please state the reported relative activity, Boric acid value of S166: protease according to SEQ ID NO: 3 used as the hydrolytic enzyme (starting enzyme) (protein, listed as Bacillus lentus) AQSVPWGISRVQAPAAHNRGLTGSGVKVAVLDTGISTHPDLNIRGGASFVPGEPSTQDGNGHGTHVAGTIAALNNSIGVLGVAPSAELYAVKVLGADGEGAISSIAQGLEWAGNNGMHVANLSLGSPSPSATLEQAVNSATSRGVLVVAASGNSGASSISYPARYANAMAVGATDQNNNRASFSQYGAGLDIVAPGVNVQSTYPGSTYASLNGTSMATPHVAGAAALVKQKNPSWSNVQIRNHLKNTATSLGSTNLYGSGLVNAEAATR .
Data returned: 79
